I'd appreciate it if you could supply MIC values for the items below.
# System: Mycobacterium tuberculosis
# Protocol Summary: Antitubercular activity against drug sensitive Mycobacterium tuberculosis H37Rv ATCC 27294 by microplate Alamar blue assay
# Format: functional

Worked examples follow.
- CN[C@@H]1[C@H](O[C@H]2[C@H](O[C@H]3[C@H](O)[C@@H](O)[C@H](N=C(N)N)[C@@H](O)[C@@H]3N=C(N)N)O[C@@H](C)[C@]2(O)C=O)O[C@@H](CO)[C@H](O)[C@H]1O: 0.5 µg/mL
- CC[C@@H](CO)NCCN[C@@H](CC)CO: 2 µg/mL

Look up MIC for the entries below, preserving their order.
1. CC(C)=CCC[C@H](C)[C@@H]1CC[C@@H](C)c2c(O)cc(C)cc21
2. NNC(=O)c1ccncc1
3. CO[C@H]1/C=C/O[C@@]2(C)Oc3c(C)c(O)c4c(O)c(c(/C=N/N5CCN(C)CC5)c(O)c4c3C2=O)NC(=O)/C(C)=C\C=C\[C@H](C)[C@H](O)[C@@H](C)[C@@H](O)[C@@H](C)[C@H](OC(C)=O)[C@@H]1C

1: 12.5 µg/mL; 2: 0.06 µg/mL; 3: 0.06 µg/mL
